Parameter: log10 of MIC. Scope: all listed entries.
# Test system: Escherichia coli
# Method Summary: Antibacterial activity against Escherichia coli TOP10 harboring beta-lactamase KPC-5 by agar dilution method
# Type: functional
Please interpret these as log10 of MIC where MIC is in µg/mL.

Consider the reported log10 of MIC for these molecules:
- Molecule: "C[C@@H](O)[C@H]1C(=O)N2C(C(=O)O)=C(SCCN=CN)C[C@H]12 [IMIPENEM ANHYDROUS]"
  Tgt: "Escherichia coli"
  log10 of MIC: 0.60
- Molecule: "CO/N=C(\\C(=O)N[C@@H]1C(=O)N2C(C(=O)O)=C(COC(C)=O)CS[C@H]12)c1csc(N)n1 [CEFOTAXIME]"
  Tgt: "Escherichia coli"
  log10 of MIC: 1.81
- Molecule: "C[C@@H](O)[C@H]1C(=O)N2C(C(=O)O)=C(S[C@@H]3CN[C@H](C(=O)Nc4cccc(C(=O)O)c4)C3)[C@H](C)[C@H]12"
  Tgt: "Escherichia coli"
  log10 of MIC: 0.90
- Molecule: "CO[C@@]1(NC(=O)Cc2cccs2)C(=O)N2C(C(=O)O)=C(COC(N)=O)CS[C@@H]21 [CEFOXITIN]"
  Tgt: "Escherichia coli"
  log10 of MIC: 1.20

Moving on to the next molecule.
For reference, reported log10 of MIC for CC(C)(O/N=C(\C(=O)N[C@@H]1C(=O)N2C(C(=O)[O-])=C(C[n+]3ccccc3)CS[C@H]12)c1csc(N)n1)C(=O)O [CEFTAZIDIME] stands at 2.11
